measuredTarget: RSV F on RSV subtype A virus (RSV-A2) (Respiratory Syncytial Virus, subtype A, …, UniProt P03420 26-574)
experiment: cell-based or functional assay

binder	limitOperator	Neutralization IC50 (RSV subtype A) (µg/mL)
ADI-43640 (antibody, V domains shown) VH: QVQLVQSGGGLVKPGGSLRLSCAASGFTFSSYSMNWVRQAPGKGLEWVSSISSSSSYIYYADSVKGRFTISRDNAKNSLYLQMNSLRAEDTAVYYCAREGRDGYNYNFDYWGQGTLVTVSS VL: QSVVTQPPSVSGAPGQRVTISCTGSSSNIGAGYDVHWYQQLPGTAPKLLIYGNSNRPSGVPDRFSGSKSGTSASLAITGLQAEDEADYYCQSYDSSLSGVVFGGGTKLTVL	>	25
ADI-41832 (antibody, V domains shown) VH: EVQLVESGGGLVQPGGSLRLSCAASGFTFSKYAMNWVRQAPGKGLEWVSSISDSGDSRYYADSVKGRFTISRDSSKNTLNLQMNSLRAEDTAVYYCAKAGWELFSPQGAFDLWGQGTMVTVSS VL: EIVMTQSPGTLSLSPGERATLSCRASQSVSSSHLAWYQQKPGQAPRLLIYGASSRDSGIPDRFSGSGSGTDFTLSISRLEPEDFAVYYCQHYGNSPYTFGQGTKVDIK	=	0.19
ADI-41841 (antibody, V domains shown) VH: EVQLLESGGGLVKPGGSLRLSCAASGFSFSYYSMNWVRQTPGKGLEWVSSISDRSSYISYADSVKGRFTISRDNAKNSLYLQMNSLRAEDTAVYYCARDQYESYAFDIWGQGTTVTVSS VL: DIQVTQSPSSLSASVGDRITITCQASQDVGNYLNWYQQKVGKAPKLLIHDASDLETGVPSRFSGSGSGTYFTFTISSLQPEDFATYYCQPYDNLRPVTFGQGTRLEIK	=	0.04
ADI-41837 (antibody, V domains shown, also called Ab 937; Antibody Number 937) VH: QVQLVQSGAEVKKPGASVKVSCKASGYTFTSYGISWVRQAPGQGLEWMGWISAYSGDTDYAQKLQGRVTMTTDTATSTAYMELRSLRSDDTAVYYCARDAHCSSTNCYIDLGGAPVDYWGQGTLVTVSS VL: DIVLTQTPLSLSVTLGQPASISCRSSQSLVYIDGYTYLNWFQQRPGQSPRRLIYKVSNRDSGVPDRFSGSGSGTDFTLKISRVEAEDVGVYYCMQGAHWPWTFGQGTKVEIK	>	25
ADI-41840 (antibody, V domains shown) VH: QVQLVQSGAEVKKPGSSVKVSCKASGDTFSGYAIYWVRQAPGRGLELMGGIIPILGTSSYAQRFLGRTSFTADESTSTAYMDLSSLTSADTAMYYCARKRVTVPVPFDSWGQGTLVTVSS VL: EIVMTQSPATLSVSPGERATLSCRASQSVSSNLAWYQQKLGQAPRLLIYGASTRATDIPARFSGSGSGTEFTLTISSLQSEDFVVYYCQQYNNWPWTFGQGTKVEIK	>	25
